Molecular target: MTHFD1 recombinant human enzyme (Homo sapiens, UniProt P11586)
Sequence (P11586 2-291 limits assumed): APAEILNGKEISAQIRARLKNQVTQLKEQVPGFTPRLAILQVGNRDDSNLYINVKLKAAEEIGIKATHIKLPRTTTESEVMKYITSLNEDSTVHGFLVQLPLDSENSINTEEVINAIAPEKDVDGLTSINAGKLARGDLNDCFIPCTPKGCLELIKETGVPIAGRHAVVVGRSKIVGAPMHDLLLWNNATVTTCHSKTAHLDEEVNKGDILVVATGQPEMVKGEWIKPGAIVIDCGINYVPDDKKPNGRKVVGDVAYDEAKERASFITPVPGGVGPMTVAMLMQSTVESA
Assay: MTHFD1 inhibition assay (NAD(P)H-Glo luminescence)
Details: MTHFD1 IC50, recombinant human enzyme 200 nM, NADP, band
Endpoint Label: IC50

- COC[C@H]1CN(c2cc(C)c3c4c(c(=O)oc3c2C)CN(C(=O)c2ccc(C(=O)NS(=O)(=O)N(C)C)c(OC3C5CC6CC(C5)CC3C6)c2)CC4)CCN1C (stereo partly drawn): 10 to 100 nM
- COC[C@H]1CN(c2cc(C)c3c4c(c(=O)oc3c2C)CN(C(=O)c2cc(OC)c(C(=O)NS(=O)(=O)N(C)C)c(N3CCCC3)c2)CC4)CCN1C: 100 to 1000 nM
- CCOc1cc(C(=O)N2CCc3c(c(=O)oc4c(C)c(N5CCN(C)[C@@H](COC)C5)cc(Cl)c34)C2)c(F)cc1C(=O)NS(=O)(=O)N(C)C1CC1: 100 to 1000 nM
- COC[C@H]1CN(c2cc(C)c3c4c(c(=O)oc3c2C)CN(C(=O)c2cc(F)c(C(=O)NS(=O)(=O)N3CCCC3)cc2N(C)C)CC4)CCN1C: 1000 to 5000 nM
- COC[C@H]1CN(c2cc(C)c3c4c(c(=O)oc3c2)CN(C(=O)c2ccc(C(=O)NS(=O)(=O)N3CCCC3)c(OC3CCCC3)c2F)CC4)CCN1C: > 5000 nM
- COC[C@H]1CN(c2cc(C)c3c4c(c(=O)oc3c2C)CN(C(=O)c2ccc(C(=O)NS(=O)(=O)N(C)C)c(N3CCC[C@H]3C)c2)CC4)CCN1C: 10 to 100 nM

====

Biological target: MTHFD1 recombinant human enzyme (Homo sapiens, UniProt P11586)
Test: MTHFD1 inhibition assay (NAD(P)H-Glo luminescence)
Conditions: MTHFD1 IC50, recombinant human enzyme 200 nM, NADP, band
A collection of compounds and their measured IC50
Endpoint Label: IC50

- COC[C@H]1CN(c2cc(C)c3c4c(c(=O)oc3c2C)CN(C(=O)c2ccc(C(=O)NS(=O)(=O)N(C)C3CCCC3)cc2F)CC4)CCN1C: 1000 to 5000 nM
- COC[C@H]1CN(c2ccc3c4c(c(=O)oc3c2C)CN(C(=O)c2ccc(C(=O)NS(=O)(=O)N3CCCC3)c(OC3CCC3)c2F)CC4)CCN1C(C)C: 100 to 1000 nM
- COC[C@H]1CN(c2ccc3c4c(c(=O)oc3c2)CN(C(=O)c2cc(N(C)C)c(C(=O)NS(=O)(=O)N3C5CCC3CC5)cc2F)CC4)CCN1C: > 5000 nM
- COC[C@H]1CN(c2cc(Cl)c3c4c(c(=O)oc3c2C)CN(C(=O)c2cc(N(C)C)c(C(=O)NS(=O)(=O)N3C5CCC3CC5)cc2F)CC4)CCN1C: 1000 to 5000 nM
- COC[C@H]1CN(c2ccc3c4c(c(=O)oc3c2C)CN(C(=O)c2cc(N(C)C)c(C(=O)NS(=O)(=O)N3CCC5(CC3)CC5)cc2Cl)CC4)CCN1C: > 5000 nM
- COC[C@H]1CN(c2cc(C)c3c4c(c(=O)oc3c2C)CN(C(=O)c2ccc(C(=O)NS(=O)(=O)C3(C)CC3)c(N(C)C3CC3)c2)CC4)CCN1C: 10 to 100 nM
